# ASSAY_SUMMARY: probe aNOTCH2 binding on compound microarray – biochemical, small-molecule microarray, 635/667 nm fluorescence, primary screen (AID 1121);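 note: score merges feature fluorescence read at 667 nm with its signal to noise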
# CONDITION_DETAILS: higher = more signal
Assign class by composite z-score: not lower than -0.09 means Criterion met; lower than -0.09 means Criterion not met.

[[record]]
smiles_string = "C=CC[C@]1(C(N)=O)COC(c2ccc(OCCCO)cc2)=N1"
assigned_category = "Criterion not met"

[[record]]
smiles_string = "COCCOC(=O)N1C(=O)[C@@]2(c3ccccc31)[C@H](C(N)=O)[C@H]1C(=O)O[C@H](c3ccccc3)[C@H](c3ccccc3)N1[C@@H]2c1ccc(O)cc1"
assigned_category = "Criterion not met"

[[record]]
smiles_string = "CO[C@H]1O[C@H](CO)[C@@H](OC(=O)Nc2ccc(Oc3ccccc3)cc2)[C@H](OC(=O)Nc2ccc3c(c2)OCO3)[C@@H]1OC(=O)Nc1ccc2c(c1)OCO2"
assigned_category = "Criterion met"


Could you please find out whether O=C1O[C@H](c2ccccc2)[C@H](c2ccccc2)N2[C@H]1[C@@H](C(=O)NC[C@H](O)c1ccccc1)[C@]1(C(=O)Nc3ccc(C#CC4=CCCCC4)cc31)[C@H]2c1ccccc1OCCO has composite z-score that meets -0.09 or exceeds it?
Criterion met

Could you please find out whether COCCCNC(=O)[C@]1(Cc2ccccc2)N=C(c2ccc(OCCCO)cc2)O[C@@H]1c1ccccc1CN=[N+]=[N-] has composite z-score that meets -0.09 or exceeds it?
Criterion met

Could you please find out whether CCCC=C(CCC)[C@@H](NC(=O)OCC(C)C)c1ccccc1 has composite z-score that meets -0.09 or exceeds it?
Criterion met
